Value source: patent US20250074911A1

Reported IC50, full-length wt-BTK enzyme (Homo sapiens (Human)).

Reference set, count: 2
Nc1ncc2n3c(nc(-c4ccc(C(=O)Nc5cc(C(F)(F)F)ccn5)cc4)c13)[C@@H]1CCC[C@H](C1)NC(=O)CCC/C=C\C2 [Example 133b] :: < 5 nM
CN1CCCCc2cnc(N)c3c(-c4ccc(C(=O)Nc5cc(C(F)(F)F)ccn5)cc4)nn(c23)[C@@H]2CCC[C@H](C2)C(=O)NCC1 :: < 5 nM

## Input Form entry - test system: full-length wt-BTK enzyme (Homo sapiens (Human)); read-out: IC50; compound: `C[C@@H]1CCn2nc(-c3ccc(C(=O)Nc4cc(C(F)(F)F)ccn4)cc3)c3c(N)ncc(c32)CCCCCCC(=O)N1`
Sequence (Q06187 whole entry): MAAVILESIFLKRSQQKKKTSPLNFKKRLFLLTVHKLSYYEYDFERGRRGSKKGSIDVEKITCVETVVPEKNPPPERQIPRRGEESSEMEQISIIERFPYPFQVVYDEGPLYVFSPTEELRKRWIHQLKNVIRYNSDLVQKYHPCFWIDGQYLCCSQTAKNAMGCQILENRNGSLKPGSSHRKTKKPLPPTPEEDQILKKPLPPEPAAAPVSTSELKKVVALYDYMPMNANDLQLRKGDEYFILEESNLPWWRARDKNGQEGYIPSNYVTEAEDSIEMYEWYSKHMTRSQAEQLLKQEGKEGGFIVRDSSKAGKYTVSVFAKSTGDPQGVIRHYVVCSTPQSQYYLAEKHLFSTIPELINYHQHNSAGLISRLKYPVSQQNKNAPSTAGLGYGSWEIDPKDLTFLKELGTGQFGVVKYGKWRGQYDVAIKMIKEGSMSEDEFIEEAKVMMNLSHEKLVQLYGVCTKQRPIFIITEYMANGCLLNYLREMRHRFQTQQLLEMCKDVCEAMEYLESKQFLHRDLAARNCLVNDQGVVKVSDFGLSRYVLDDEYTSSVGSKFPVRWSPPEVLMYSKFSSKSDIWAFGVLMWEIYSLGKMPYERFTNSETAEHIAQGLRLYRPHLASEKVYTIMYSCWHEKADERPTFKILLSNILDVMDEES
## Output 5 to 50 nM

* * *

# ASSAYED_SYSTEM: wt-BTK (Homo sapiens (Human), UniProt Q06187)
# Sequence (Q06187 whole entry): as above
# PROCEDURE_TEXT: Binding kinetics measurements (Surface Plasmon Resonance) on wt-BTK
# CONDITION_LABEL: target residence time, SPR
METRIC_NAME: Tau (h) wt-BTK (Act)

Reference set, count: 3
Nc1ncc2c3c1c(-c1ccc(C(=O)Nc4cc(C(F)(F)F)ccn4)cc1)nn3[C@@H]1CCC[C@H](C1)NC(=O)CCCC[C@H](O)/C=C/2 [Example 11] :: 5.48
Nc1ncc2c3c1c(-c1ccc(C(=O)Nc4cc(C(F)(F)F)ccn4)cc1F)nn3[C@@H]1CCC[C@H](C1)NC(=O)CNC/C=C/2 [Example 8] :: 2.25
N#Cc1ccnc(NC(=O)c2ccc(-c3nc4n5c(cnc(N)c35)/C=C/CCOCCC(=O)N[C@@H]3CCC[C@@H]4C3)cc2)c1 [Example 205] :: 1.80

P = CN1C/C=C/c2cnc(N)c3c(-c4ccc(C(=O)Nc5cc(C(F)(F)F)ccn5)cc4)nn(c23)[C@@H]2CCC[C@H](C2)NC(=O)CCC1 [Example 10]
Q = Nc1ncc2n3c(nc(-c4ccc(C(=O)Nc5cc(C(F)(F)F)ccn5)cc4)c13)[C@@H]1CCC[C@H](C1)NC(=O)CCC/C=C/2 [Example 132]
R = Nc1ncc2c3c1c(-c1ccc(C(=O)Nc4ccccn4)cc1)nn3[C@@H]1CCC[C@H](C1)C(=O)NCCCCC/C=C\C2 [Example 88b]
## Input Put the items in sequence by Tau (h) wt-BTK (Act), from largest down. Reply with the labels, ordered as the question asks.
## Output P, Q, R

I = C[C@@H]1CCn2nc(-c3ccc(C(=O)Nc4cc(C(F)(F)F)ccn4)cc3)c3c(N)ncc(c32)/C=C/CSCC(=O)N1 [Example 61]
II = C[C@@H]1C[C@@H](C)n2nc(-c3ccc(C(=O)Nc4cc(C(F)(F)F)ccn4)cc3)c3c(N)ncc(c32)/C=C/COCCC(=O)N1 [Example 176]
III = N#Cc1ccnc(NC(=O)c2ccc(-c3nn4c5c(cnc(N)c35)/C=C/CCOCCC(=O)N[C@@H]3CC[C@@H]4C3)cc2)c1 [Example 185]
## Input Exam item: list the entries in increasing order of Tau (h) wt-BTK (Act). Reply with the labels, ordered as the question asks.
## Output II, I, III
(II: 3.13 h, I: 4.95 h, III: 10.79 h)

* * *

# ASSAYED_SYSTEM: full-length wt-BTK enzyme (Homo sapiens (Human))
# PROCEDURE_TEXT: Biochemical kinase assay wt-BTK (IMAP)
IC50 reference

Reference set, count: 4
C[C@@H]1CCn2nc(-c3ccc(C(=O)Nc4cc(C(F)(F)F)ccn4)cc3)c3c(N)ncc(c32)/C=C/CCOCC(=O)N1 :: < 5 nM
C[C@@H]1C[C@@H](C)n2nc(-c3ccc(C(=O)Nc4cc(C(F)(F)F)ccn4)cc3)c3c(N)ncc(c32)/C=C/COCCC(=O)N1 :: < 5 nM
Nc1ncc2c3c1c(-c1ccc(C(=O)Nc4ccccn4)cc1)nn3[C@@H]1CCC[C@H](C1)C(=O)NCCCCC/C=C\C2 [Example 88b] :: < 5 nM
C[C@@H]1CCn2nc(-c3ccc(C(=O)Nc4cc(C(F)(F)F)ccn4)cc3)c3c(N)ncc(c32)/C=C/CCCC(=O)N1 :: < 5 nM

## Input # IC50 lookup, item `CN1CC/C=C/c2cnc(N)c3c(-c4ccc(C(=O)Nc5cc(C(F)(F)F)ccn5)cc4)nn(c23)[C@@H]2CCC[C@H](C2)NC(=O)CC1`
## Output < 5 nM

## Input # IC50 lookup, item Nc1ncc2c3c1c(-c1ccc(C(=O)Nc4ccccn4)cc1)nn3[C@@H]1CCC[C@H](C1)C(=O)NCCCCC/C=C/C2 [Example 88a]
## Output 5 to 50 nM

* * *

# ASSAYED_SYSTEM: BTK C481S (Homo sapiens (Human), UniProt Q06187, C481S)
# Sequence (Q06187 whole entry C481S): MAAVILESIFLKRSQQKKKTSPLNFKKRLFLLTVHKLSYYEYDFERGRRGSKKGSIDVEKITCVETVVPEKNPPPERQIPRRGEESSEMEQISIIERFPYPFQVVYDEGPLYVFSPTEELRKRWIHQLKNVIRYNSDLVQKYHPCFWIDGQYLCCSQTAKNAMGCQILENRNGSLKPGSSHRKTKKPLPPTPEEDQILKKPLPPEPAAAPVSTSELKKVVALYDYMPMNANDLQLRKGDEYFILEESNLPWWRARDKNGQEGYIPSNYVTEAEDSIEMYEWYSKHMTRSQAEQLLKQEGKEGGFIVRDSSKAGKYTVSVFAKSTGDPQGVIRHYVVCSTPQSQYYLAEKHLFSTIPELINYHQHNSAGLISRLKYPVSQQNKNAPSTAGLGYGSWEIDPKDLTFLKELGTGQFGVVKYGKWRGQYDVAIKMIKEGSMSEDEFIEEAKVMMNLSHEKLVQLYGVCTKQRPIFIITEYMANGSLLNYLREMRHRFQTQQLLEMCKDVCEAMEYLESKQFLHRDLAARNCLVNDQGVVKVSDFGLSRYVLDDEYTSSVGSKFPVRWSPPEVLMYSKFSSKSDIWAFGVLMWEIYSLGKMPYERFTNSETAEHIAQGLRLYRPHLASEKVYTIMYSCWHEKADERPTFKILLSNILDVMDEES
# PROCEDURE_TEXT: Binding kinetics measurements (Surface Plasmon Resonance) on BTK C481S
# CONDITION_LABEL: target residence time for BTK C481S, SPR
METRIC_NAME: Tau (h) BTK C418S (Act)

Reference set, count: 2
Nc1ncc2c3c1c(-c1ccc(C(=O)Nc4cc(C(F)(F)F)ccn4)cc1)nn3[C@@H]1CCC[C@H](C1)NC(=O)COCC/C=C/2 :: 2.91
Nc1ncc2c3c1c(-c1ccc(C(=O)Nc4cc(C(F)(F)F)ccn4)cc1)nn3[C@@H]1CCC[C@H](C1)C(=O)NCCCC/C=C\C2 [Example 85b] :: 7.12

A = Nc1ncc2c3c1c(-c1ccc(C(=O)Nc4cc(C(F)(F)F)ccn4)cc1)nn3[C@@H]1CCC[C@H](C1)NC(=O)CCNCC/C=C/2
B = C[C@H]1CN(C2COC2)CCN1c1ccc(Nc2cc(-c3ccnc(N4CCn5c(cc6c5CC(C)(C)C6)C4=O)c3CO)cn(C)c2=O)nc1 [fenebrutinib, reference compound]
C = Nc1ncc2c3c1c(-c1ccc(C(=O)Nc4cc(C(F)(F)F)ccn4)cc1)nn3[C@@H]1CC[C@H](C1)NC(=O)CCCCC/C=C/2
## Input Put the items in sequence by Tau (h) BTK C418S (Act), from largest down. Reply with the labels, ordered as the question asks.
## Output A, C, B

1 = N#Cc1ccnc(NC(=O)c2ccc(-c3nn4c5c(cnc(N)c35)/C=C/COCCC(=O)N[C@@H]3CC[C@@H]4C3)cc2)c1
2 = Nc1ncc2c3c1c(-c1ccc(C(=O)Nc4cc(C(F)(F)F)ccn4)cc1)nn3[C@@H]1CCC[C@H](C1)NC(=O)[C@@H]1CCN(C/C=C/2)C1
3 = Nc1ncc2n3c(nc(-c4ccc(C(=O)Nc5cc(C(F)(F)F)ccn5)cc4)c13)[C@@H]1CC[C@H](C1)NC(=O)CCOC/C=C/2
## Input Put the items in sequence by Tau (h) BTK C418S (Act), from largest down. Reply with the labels, ordered as the question asks.
## Output 3, 1, 2

* * *

# System: wt-TMD8 diffuse large B-cell lymphoma cells
# PROCEDURE_TEXT: Cell proliferation assay wt-TMD8 (ATPlite, 120 hours)
# Format: cell-based
# CONDITION_LABEL: B-cell; wt-TMD8 cells, 120 hours, ATPlite; read-out: IC50 wt-TMD8
# Method: Cell proliferation assay wt-TMD8 diffuse large B-cell lymphoma cells were purchased from Tokyo Medical and Dental University and cultured in RPMI-1640 cell culture medium (cat. no. 61870036, Life Technologies), supplemented with 10% (v/v) heat-inactivated fetal bovine calf serum and 1% penicillin/streptavidin. […] Luminescence was recorded on an Envision multimode reader. […] In addition, maximum growth was determined by incubation of a duplicate without compound in the presence of 0.3% DMSO. […]
pIC50: −log10 of the molar value.
pIC50 reference

CN1CCCCc2cnc(N)c3c(-c4ccc(C(=O)Nc5cc(C(F)(F)F)ccn5)cc4)nn(c23)[C@@H]2CCC[C@H](C2)C(=O)NCC1 :: > 7.00
C[C@@H]1CCn2nc(-c3ccc(C(=O)Nc4cc(C(F)(F)F)ccn4)cc3)c3c(N)ncc(c32)/C=C/CN2CC[C@H](C2)C(=O)N1 :: > 7.00

Here's the next entry for you.
## Input # pIC50 lookup, item `Nc1ncc2c3c1c(-c1ccc(C(=O)Nc4cc(C(F)(F)F)ccn4)cc1)nn3[C@@H]1CC[C@H](C1)NC(=O)CCOC/C=C/2`
## Output > 7.00

* * *

# ASSAYED_SYSTEM: full-length BTK C481S enzyme (Homo sapiens (Human), UniProt Q06187, C481S)
# Sequence (Q06187 whole entry C481S): as the sequence (Q06187 whole entry C481S) above
# PROCEDURE_TEXT: Biochemical kinase assay BTK C481S (IMAP)
METRIC_NAME: IC50

Reference set, count: 4
Nc1ncc2c3c1c(-c1ccc(C(=O)Nc4ccccn4)cc1)nn3[C@@H]1CCC[C@H](C1)NC(=O)COC/C=C/C2 [Example 104a] :: 50 to 500 nM
Nc1ncc2c3c1c(-c1ccc(C(=O)Nc4ccccn4)cc1)nn3[C@@H]1CCC[C@H](C1)C(=O)NCCCCC/C=C/C2 [Example 88a] :: 5 to 50 nM
COC1/C=C/c2cnc(N)c3c(-c4ccc(C(=O)Nc5cc(C(F)(F)F)ccn5)cc4)nn(c23)[C@@H]2CCC[C@H](C2)NC(=O)CCC1 (stereo partly shown) :: 5 to 50 nM
Nc1ncc2c3c1c(-c1ccc(C(=O)Nc4cc(C(F)(F)F)ccn4)cc1)nn3[C@@H]1CCC[C@H](C1)C(=O)NCCCCCC/C=C\C2 :: 5 to 50 nM

## Input Form entry - test system: full-length BTK C481S enzyme (Homo sapiens (Human), UniProt Q06187, C481S); read-out: IC50; molecule: `Nc1ncc2c3c1c(-c1ccc(C(=O)Nc4cc(C(F)(F)F)ccn4)cc1)nn3[C@@H]1CC[C@H](C1)NC(=O)[C@@H]1CCN1CC/C=C/2`
## Output < 5 nM

## Input Form entry - test system: full-length BTK C481S enzyme (Homo sapiens (Human), UniProt Q06187, C481S); read-out: IC50; molecule: `C[C@@H]1CCn2nc(-c3ccc(C(=O)Nc4cc(C(F)(F)F)ccn4)cc3)c3c(N)ncc(c32)/C=C/CNCCCC(=O)N1`
## Output < 5 nM

## Input Form entry - test system: full-length BTK C481S enzyme (Homo sapiens (Human), UniProt Q06187, C481S); read-out: IC50; molecule: Nc1ncc2c3c1c(-c1ccc(C(=O)Nc4cc(C(F)(F)F)ccn4)cc1)nn3[C@@H]1CCC[C@H](C1)NC(=O)COC/C=C/C2 [Example 97a]
## Output 5 to 50 nM

## Input Form entry - test system: full-length BTK C481S enzyme (Homo sapiens (Human), UniProt Q06187, C481S); read-out: IC50; molecule: Nc1ncc2c3c1c(-c1ccc(C(=O)Nc4cc(C(F)(F)F)ccn4)cc1)nn3[C@@H]1CCC[C@H](C1)NC(=O)CCCCC/C=C\C2 [Example 101b]
## Output < 5 nM

## Input Form entry - test system: full-length BTK C481S enzyme (Homo sapiens (Human), UniProt Q06187, C481S); read-out: IC50; molecule: `Nc1ncc2c3c1c(-c1ccc(C(=O)Nc4cc(C(F)(F)F)ccn4)cc1)nn3[C@@H]1CCCN(C1)C(=O)CCCC/C=C/2`
## Output 5 to 50 nM
